Target: Caspase-8 (Homo sapiens)
Sequence (Q14790 217-374 limits assumed): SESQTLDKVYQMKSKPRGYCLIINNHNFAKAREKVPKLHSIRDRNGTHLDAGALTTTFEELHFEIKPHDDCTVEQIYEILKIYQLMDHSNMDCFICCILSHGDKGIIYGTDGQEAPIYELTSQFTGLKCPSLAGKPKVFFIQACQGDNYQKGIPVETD
Sequence (Q14790 385-479 limits assumed): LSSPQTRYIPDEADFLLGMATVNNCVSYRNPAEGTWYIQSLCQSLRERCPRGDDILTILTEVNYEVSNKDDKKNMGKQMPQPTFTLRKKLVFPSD
Test: Caspase-8 enzyme assay, cleavage of fluorogenic substrate
Assay type: biochemical
Settings: second order rate constant of enzyme inactivation; substrate Acetyl-Asp-Glu-val-Asp-amino-4-methylcoumarin
experimentalEndpoint: Caspase-8 Kinact (M⁻¹ s⁻¹)

O=C(O)CC(NC(=O)Cn1ccc(-c2ccccc2)cc1=O)C(=O)CF (stereo not shown): 13500

(I) CC(C)[C@@H](C(=O)NC(CC(=O)O)C(=O)CF)N1Cc2ccccc2N(Cc2cccc(Cl)c2)C1=O (stereo partly shown)
(II) Cc1cccc(=O)n1CC(=O)NC(CC(=O)O)C(=O)CF (stereo not shown)
Request: Out of I and II , name the one with the higher Caspase-8 Kinact. Response format: the label of the selected entry.
Response: I

---

Target: Caspase-1 (Homo sapiens, UniProt P29466)
Sequence (P29466 120-297 limits assumed): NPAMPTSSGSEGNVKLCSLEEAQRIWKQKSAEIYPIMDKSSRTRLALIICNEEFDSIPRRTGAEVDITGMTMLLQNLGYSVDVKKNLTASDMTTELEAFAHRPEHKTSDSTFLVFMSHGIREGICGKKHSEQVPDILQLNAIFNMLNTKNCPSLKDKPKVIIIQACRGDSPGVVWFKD
Sequence (P29466 317-404 limits assumed): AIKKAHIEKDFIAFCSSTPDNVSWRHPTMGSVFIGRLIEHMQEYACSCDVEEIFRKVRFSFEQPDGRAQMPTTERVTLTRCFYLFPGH
Test: Caspase-1 enzyme assay, cleavage of fluorogenic substrate
Type: biochemical
Conditions: second order rate constant of enzyme inactivation; substrate Acetyl-Tyr-Val-Ala-Asp-amino-4-methylcoumarin
experimentalEndpoint: Kinact (M⁻¹ s⁻¹)

C[C@@H](C(=O)NC(CC(=O)O)C(=O)CF)N1C(=O)c2ccccc2C1=O (stereo partly drawn): 115000
CC[C@@H](C(=O)NC(CC(=O)O)C(=O)CF)n1cnccc1=O (stereo partly drawn): 307000
O=C(O)CC(NC(=O)Cn1cnc2sccc2c1=O)C(=O)CF (stereo not drawn): 46000

(I) O=C(O)CC(NC(=O)Cn1ccc(-c2ccccc2)cc1=O)C(=O)CF (stereo not drawn)
(II) CCC[C@@H](C(=O)NC(CC(=O)O)C(=O)CF)n1cnc2ccccc2c1=O (stereo partly drawn)
Request: Out of I and II , name the one with the higher Kinact. Response format: the label of the selected entry.
Response: II
(II: 419000 M⁻¹ s⁻¹, I: 40000 M⁻¹ s⁻¹)

---

System: Jurkat E6.1 cells
Experiment: Anti-Fas induced apoptosis assay
Format: cell-based
Details: Homo sapiens, anti-Fas antibody CH-11 10 ng/ml, 16-18 hrs, DNA fragmentation, OD405 nm
pIC50: −log10 of the molar value.
experimentalEndpoint: pIC50

Solved cases below.
CCC[C@@H](C(=O)NC(CC(=O)O)C(=O)CF)n1cnc2ccccc2c1=O (stereo partly drawn) [Compound 1C-11]: 7.70
O=C(O)CC(NC(=O)Cn1ccc2ccccc2c1=O)C(=O)CF (stereo not drawn) [Compound 1C-1]: 7.22
CC[C@@H](C(=O)NC(CC(=O)O)C(=O)CF)n1cnccc1=O (stereo partly drawn) [Compound 1G-1]: 7.70
CC(C)[C@@H](C(=O)NC(CC(=O)O)C(=O)CF)N1Cc2ccccc2N(Cc2cccc(Cl)c2)C1=O (stereo partly drawn) [Compound 1D-1]: 7.70
Cc1cccc(=O)n1CC(=O)NC(CC(=O)O)C(=O)CF (stereo not drawn) [Compound 1A-3]: 6.68

(P) C[C@@H](C(=O)NC(CC(=O)O)C(=O)CF)N1C(=O)c2ccccc2C1=O (stereo partly drawn) [Compound 1F-3]
(Q) C[C@@H](C(=O)NC(CC(=O)O)C(=O)CF)n1c(=O)ccc2ccccc21 (stereo partly drawn) [Compound 1B-1]
(R) O=C(O)CC(NC(=O)Cn1ccc(-c2ccccc2)cc1=O)C(=O)CF (stereo not drawn) [Compound 1A-4]
(S) O=C(O)CC(NC(=O)Cn1cnc2sccc2c1=O)C(=O)CF (stereo not drawn) [Compound 1E-1]
Request: Ordering: ascending pIC50. Reply format: the labels, ordered as requested.
Response: R, Q, S, P
(R: 6.19, Q: 6.85, S: 7.15, P: 7.52)
